Measured activity coefficient accompanies every entry in the list below.
experimentalProtocol: activity coefficient (dimensionless); of the first substance listed, at infinite dilution; xn = mol fraction of the nth substance listed
details: 343.15 K; Liquid; Chromatography; x1 = 0
Field format: numeric only.

// known answers, use as guide
CC1CCCCC1 [methylcyclohexane] + CCCCCCCCn1cc[n+](COCCCOC[n+]2ccn(CCCCCCCC)c2C)c1C.O=S(=O)([N-]S(=O)(=O)C(F)(F)F)C(F)(F)F.O=S(=O)([N-]S(=O)(=O)C(F)(F)F)C(F)(F)F	2.73
CCC[N+](=O)[O-] [1-nitropropane] + CCCOC[n+]1ccn(Cc2ccccc2)c1.O=S(=O)([N-]S(=O)(=O)C(F)(F)F)C(F)(F)F	0.47

Let's switch to this compound now.
Look at this compound and give its reported activity coefficient. CCCCCCCCCCCC [dodecane] + CCCOC[n+]1ccn(C)c1.O=S(=O)([N-]S(=O)(=O)C(F)(F)F)C(F)(F)F
105
